Molecular target: unrelated Fc-fused recombinant protein
Test: ELISA, negative control Fc protein
observationType: ELISA Fc Control (RLU)
Be sure to follow the number with its unit.

Exercise: So what's the measured ELISA Fc Control (RLU) for this one? ISOP193FR9P1G4 (designed binder, not shown: small tags and cut ends) LPAPKNLVVSRVTEDSARLSWTAPDAAFDSFEIYYFENELGGEAIVLTVPGSERSYDLTGLKPGTEYLVTIYGVKGGDWSDPLSAIFTT
Solution: 1840 RLU

Exercise: Which measured ELISA Fc Control (RLU) value corresponds to ISOP193HR9P1E2 (designed binder, not shown: small tags and cut ends) LPAPKNLVVSRVTEDSARLSWTAPDAAFDSFEIYYLEWCSGGEAIVLTVPGSERSYDLTGLKPGTEYLVTIYGVKGCAASDPLSAIFTT ?
Solution: 13100 RLU

Exercise: Return reported ELISA Fc Control (RLU); argument: ISOP193ER9P1F7 (designed binder, not shown: small tags and cut ends) LPAPKNLVVSRVTEDSAHLSWTAPDAAFDSFDIYYFEHPVGGEAIVLTVPGSERSYDLTGLKPGTEYLVTIYGVKGGYLSMPLSAIFTT
Solution: 1200 RLU

Attribution: patent US20220259289A1
